Overview of reported protein stability index across a group of variants:
B1: EDARADD (parent)
chain: VEKVLRRWVDEEWPKRERGDPSRH

variants of: B1; assay: protein stability index of a GFP-peptide fusion (GPS, HEK-293T) (PSI 1-6); higher = more stable; conditions: c terminus: a fixed tail appended;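 note: lentivirally expressed fusions sorted by FACS into six bins by GFP to DsRed ratio, PSI derived from sequencing read proportions per bin multiplied by bin number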
Lab note: write the figure by itself, no unit.

Below, 3 variants whose answers are already recorded.
{"Mutant Id": "V9T", "Observed Value": 3.72}
{"Mutant Id": "V9R", "Observed Value": 3.48}
{"Mutant Id": "L5R", "Observed Value": 1.99}

Query: Could you tell me which protein stability index is on file for P14V ?
Result: 2.92

Query: Could you tell me which protein stability index is on file for K15G ?
Result: 3.44

Query: Could you tell me which protein stability index is on file for E2F ?
Result: 1.45

Query: Could you tell me which protein stability index is on file for L5C ?
Result: 2.71

Query: Could you tell me which protein stability index is on file for D20H ?
Result: 2.81

Query: Could you tell me which protein stability index is on file for W8C ?
Result: 4.03

Query: Could you tell me which protein stability index is on file for D10Q ?
Result: 2.73

Query: Could you tell me which protein stability index is on file for R16P ?
Result: 3

Query: Could you tell me which protein stability index is on file for H24S ?
Result: 2.81

Query: Could you tell me which protein stability index is on file for R18S ?
Result: 2.83

Query: Could you tell me which protein stability index is on file for V1M ?
Result: 2.95

Query: Could you tell me which protein stability index is on file for R18G ?
Result: 3.58

Query: Could you tell me which protein stability index is on file for P21N ?
Result: 3.21

Query: Could you tell me which protein stability index is on file for R18E ?
Result: 3.73

Query: Could you tell me which protein stability index is on file for D20A ?
Result: 3.45

Query: Could you tell me which protein stability index is on file for H24I ?
Result: 2.3

Query: Could you tell me which protein stability index is on file for E11G ?
Result: 3.1

Query: Could you tell me which protein stability index is on file for R16I ?
Result: 3.77

Query: Could you tell me which protein stability index is on file for R18N ?
Result: 3.22

Query: Could you tell me which protein stability index is on file for V4K ?
Result: 3.06

Query: Could you tell me which protein stability index is on file for E12W ?
Result: 1.54

Query: Could you tell me which protein stability index is on file for P14A ?
Result: 2.31
